- Protocol description: protein stability index of a GFP-peptide fusion (GPS, HEK-293T) (PSI 1-6); higher = more stable;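 also: 24-mer peptide tiles fused after GFP, lentivirally expressed, FACS-sorted into six equal bins by GFP/DsRed ratio, decoded by Illumina sequencing, PSI is the read-weighted mean bin number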
- Condition summary: treatment: MLN4924 1 uM, 8 h; c terminus: a fixed tail appended
Assign protein stability index to each entry below.
# print the numeric value only

Data request: // returns reported protein stability index for input DALMKEQLVEMTGLSPRVIRVWFQ [ISL2]
Data returned: 2.22

Data request: I'd like to know its protein stability index. The sequence in question is LNQGFLQAKPEKAAVAQKPRSHFT [MYBL2]
Data returned: 4.06

Data request: # query: protein stability index of entry MLCSQPGLANSSRVRGRVGTIRPV [C22orf15]
Data returned: 3.37

Data request: State the recorded protein stability index for this entry: VRIQNPSLRENDFIEIELDRQELT [ANKRD40]
Data returned: 3.26

Data request: Report protein stability index for KPQEIVQVEIFSTNPDLYPVRRID [IQUB] please.
Data returned: 2.79

Data request: Report protein stability index for DELTLARTDLEMQIEGLNEELAYL [KRT15] please.
Data returned: 4.42

Data request: I am curious: what protein stability index value has been reported for SPIKKVRKSLALDIVDEDVKLMMS [MYBL2] ?
Data returned: 3.68

Data request: For the sequence shown here, RMVPALPPKRMLGADREFIEARRR [SNX8] , give the reported protein stability index.
Data returned: 4.17

Data request: Fill in: protein stability index of APAAPMVSKGAESSRSSEESSSDS [BRD3] is ___
Data returned: 5.63

Data request: Query: protein stability index; subject: TLVGNVAQDLGLKMTDLLSRRLQL [PCDHGC5]
Data returned: 2.6

Data request: Sample MSRRTRCEDLDELHYQDTDSDVPE [MYBL2] — what was its protein stability index?
Data returned: 5.59

Data request: For PMKSAPVMLTLSDSKHVVLPVDDD [RBBP5] , what is its reported protein stability index?
Data returned: 5.07

Data request: Form field: reported protein stability index of KPHFESSTVKTETISFGSVSPGGV [EPB41L3]
Data returned: 4.09

Data request: For the sequence shown here, TDILPQMITLSEAYIQIWKRRDND [USP39] , give the reported protein stability index.
Data returned: 2.79

Data request: Look up protein stability index for this sequence: GYPLPKLDMNFSLENREEPWVKEL [ZNF449]
Data returned: 3.7

Data request: Param item = LDVKSPPEPRSEVVPARLKRASAP [RIPK4] ; retrieve measured protein stability index.
Data returned: 5.11

Data request: Look at this sequence and give its reported protein stability index. KVLGRLRALSDTTEELTVIKSSLK [SLC2A12]
Data returned: 2.76

Data request: Query: protein stability index; subject: WYTKSFGHLCAAEVVKIRDSFSNQ [DLC1]
Data returned: 2.09

Data request: Look at this sequence and give its reported protein stability index. FSTSKWNHLLHHFVIGHLKGAPAS [FADS1]
Data returned: 2.17

Data request: Fill in: protein stability index of MEEVLLLGLKDKEGYTSFWNDCIS [GOLPH3L] is ___
Data returned: 2.61

Data request: // lookup protein stability index for MEADSPAGPGAPEPLAEGAAAEFS [SLC35F2]
Data returned: 5.48

Data request: Would you mind telling me what protein stability index value was observed for IDKFGFIVGSQGAEGALEEVPLEV [TBC1D10A] ?
Data returned: 4.42

Data request: Could you tell me which protein stability index is on file for RFPLQEENSVTHHEVKCQGKPLAG [KMT5A] ?
Data returned: 4.55

Data request: Suppose we examine the sequence VIPECAHGGLYKPVQCHPSTGYCW [SMOC2] ; what protein stability index value has been reported?
Data returned: 2.77

Data request: Requested field: protein stability index. Item: ECSYTSADGQRHHSKLLVSGFWGV [DHCR7]
Data returned: 2.17

Data request: Look at this sequence and give its reported protein stability index. EPLPVERDPAAGAAPFRFVARPVR [ZNF511]
Data returned: 3.48

Data request: Fill blank: measured protein stability index of the sequence DCRVDLGSEVYRMLREPAEPVAAE [PDLIM4] is ____.
Data returned: 4.76

Data request: protein stability index for ESQVFSEKLATDTSTFEATSEGTL [ZNF232] ?
Data returned: 5.15

Data request: Fill in: protein stability index of NTLAPTCFKAKLHRKRGSQPPDMA [RSPH3] is ___
Data returned: 3.87

Data request: I would be grateful if you could share the reported protein stability index for AHVNTLHSGTKRDPKEDVFQQNHL [PHTF1] .
Data returned: 4.28

Data request: Quick one: protein stability index for SCSQGSGILHYAHGDSQQTHLLKQ [CRY1] ?
Data returned: 3.31

Data request: Form field: reported protein stability index of QAFRAIDRGDYYLEGYRDNAYKDL [PCMTD1]
Data returned: 2.98

Data request: Quick one: protein stability index of PVLLLQITVGLVFLCLQYRLRGKL [MOG] ?
Data returned: 3.17

Data request: Would you mind telling me what protein stability index value was observed for WLSANPCPHCGDRTFYDPEPILCP [PRAME] ?
Data returned: 2.69

Data request: // query protein stability index value for entry EMPKSSDFLIHPPERSDLTLYLIV [PCDHGC5]
Data returned: 2.72

Data request: Field request: protein stability index | item: EIQREIGISNALHRLKLRLAIQEM [PPFIA4]
Data returned: 2.3

Data request: Endpoint output: protein stability index of TTTTFPMSNHTRERVTVAKLTLEN [STK38L] . Value?
Data returned: 3.5

Data request: I am curious: what protein stability index value has been reported for VESVFFGGGTPSLASPHTVAAVLE [RSAD1] ?
Data returned: 3.02

Data request: # lookup: protein stability index of VHTKEQILELLVLEQFLAILPKEL [ZNF396]
Data returned: 2.43

Data request: What value of protein stability index has been reported for the following sequence? NLGVENMNHYKKTTLEIHNTEERQ [PTPN9]
Data returned: 4.8

Data request: Which protein stability index is reported for this sequence? DENERDLMHIAHIAELLEVFDLRM [RHOBTB2]
Data returned: 2.7

---

Please provide measured protein stability index for the entries that follow.
- Protocol description: protein stability index of a GFP-peptide fusion (GPS, HEK-293T) (PSI 1-6); higher = more stable
- Condition summary: treatment: MLN4924 1 uM, 8 h; c terminus: a fixed tail appended
The reply should be a number, written without any unit.

Data request: Tell me the measured protein stability index of LPSNPCATTNACEKPIGSCVTNPC [KRT33B] , please.
Data returned: 4.41

Data request: Recorded protein stability index of QTWKLFSSHMNIDITDDCICDLAR [PPEF2] , please.
Data returned: 2.06

Data request: Request the reported protein stability index associated with ENLKQQRSRREQFSRAPVSALPLA [STX5]
Data returned: 3.75

Data request: Consider the sequence GQQDQVKLHDFFSYLMDHFIPSSH [PPEF2] and give its measured protein stability index.
Data returned: 2.89

Data request: Reported protein stability index, sequence KAQGHGAKGDNVYEFHLEFLDLVK [HACD3] : ____
Data returned: 2.46

Data request: Fill in the blank: the reported protein stability index of VPGGAGPCATVSVFPGARLLTIGD [CARM1] is ____.
Data returned: 2.53

Data request: Would you kindly share the measured protein stability index for CILLSALGYLLLGAATNVFLFVLA [MFSD9] ?
Data returned: 2.77

---

- Protocol description: protein stability index of a GFP-peptide fusion (GPS, HEK-293T) (PSI 1-6); higher = more stable
- Condition summary: treatment: DMSO; c terminus: a fixed tail appended
Observation type: protein stability index
// return just the number, without any unit appended

Data request: Looking for the measured protein stability index of DLDNYFTARRLLSQVRALDRFQVP [NFE2L1] , can you help?
Data returned: 2.5

Data request: Returns the measured protein stability index for the input sequence. Input: RRENSTLDVECHEKEKHVNQLQTK [SASS6]
Data returned: 5.13

Data request: Need protein stability index, item IRYQSFNNQSDLEKEMQKMNPYKI [PRIM1]
Data returned: 3.07

Data request: I am curious: what protein stability index value has been reported for KVLGRLRALSDTTEELTVIKSSLK [SLC2A12] ?
Data returned: 2.58

Data request: What does the data say about its protein stability index? Entry: ELSLVTLFRCIQNMPETLPNNSCY [TNFSF13B]
Data returned: 3.65

Data request: Recorded protein stability index for DKEGYNSIHYAAAYGHRQCLELVS [ANKRD44] , please?
Data returned: 2.42

Data request: Report protein stability index for EQARAYAEKNCMTFFEVSPLCNFN [RAB40C] please.
Data returned: 2.49

Data request: Find the recorded protein stability index belonging to MSSQVVGIEPLYIKAEPASPDSPK [ESRRA] and report it.
Data returned: 4.86

Data request: What does the record list as protein stability index for RRSQQQQVPVVDFQAELRQAFLAE [SNURF] ?
Data returned: 3.84

Data request: Field request: protein stability index | item: QENESLFTFLGKKCVTMSSAVVQL [WASL]
Data returned: 2.29
